Entry source: the supplement of paper PMC11208160

- Test description: recombinant UMI read abundance after kanamycin selection (control-corrected) (log10(CPM+1)); higher = more efficient recombination; extreme values may be limits of the assay; sequences stand for … in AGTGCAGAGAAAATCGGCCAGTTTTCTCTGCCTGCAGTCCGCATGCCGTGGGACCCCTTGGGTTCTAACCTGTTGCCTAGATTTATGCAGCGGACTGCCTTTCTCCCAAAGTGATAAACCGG…AGGTTGGTTTCACT; site = the 11-nt donor;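 also: IS621 bridge recombinase in Escherichia coli cells against a fixed T5 target plasmid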
Classes are defined on recombinant UMI read abundance (log10) with ranges lower = under 0.009, middle = from 0.009 up to 0.7, upper = 0.7 and over

# example entries with known answers
1. TCCGCCGCATGGACCGGTTTTCCCGGTAATCCGTATTTGCG (site TCCTCCGCTCG) | lower
2. CAGTAACCATGGACCGGTTTTCCCGGTAATCCGTATTTGGA (site CAGTAACCTTC) | lower
3. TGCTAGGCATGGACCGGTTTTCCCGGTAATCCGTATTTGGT (site TGCTAGGCTCC) | middle
4. ATGAACTCATGGACCGGTTTTCCCGGTAATCCGTATTTGGG (site ATGAACTCTCC) | upper
5. CTCAATGCATGGACCGGTTTTCCCGGTAATCCGTATTTGGG (site CTCAATGCTCC) | lower
6. GTCCGAGCATGGACCGGTTTTCCCGGTAATCCGTATTTGCA (site GTCCGAGCTTG) | upper
7. CGTGGAACATGGACCGGTTTTCCCGGTAATCCGTATTTGCT (site CGTGGAACTAT) | middle

In the following, a different sequence is considered.
Class? Entry: ACCTAGACATGGACCGGTTTTCCCGGTAATCCGTATTTGGA (site ACCTAGACTTC) upper
